# System: Danio rerio Tg(wt1b:EGFP) embryo, pronephros
# test: glomerular separation, fold change vs DMSO control; higher = glomeruli further apart (abnormal)
# condition-info: 25 µM; exposure: 24-48 hpf
Structures can show the parent of a compound that is named as a salt.
Listing: glomerular separation of selected compounds
# answer = number (no unit)

Worked set:
> print(dat)
                                   compound  test.result
1  CCOC(=O)c1cncn1[C@H](C)c1ccccc1 [Etomidate]        0.978
2  CCN(C(C)=O)c1cccc(-c2ccnc3c(C#N)cnn23)c1        0.976
3        NC(=O)OCCCc1ccccc1 [Phenprobamate]        0.999
4  C[N+]1(C)[C@@H]2CC[C@H]1C[C@@H](OC(=O)C(CO)c1ccccc1)C2 (stereo partly drawn) [Methylatropine nitrate]         1.01
5  C(#CCN1CCCC1)CN1CCCC1 [Tremorine dihydrochloride]         1.25
6  C[C@@H]1CC[C@H]2[C@@H](C)C(=O)O[C@@H]3O[C@@]4(C)CC[C@@H]1[C@]32OO4        0.996
7  N[C@@H]1C[C@H]1c1ccccc1 [Tranylcypromine hydrochloride]         1.03

Please find the next compound below.
Req: Tell me the measured glomerular separation of CCCC(C)C1(CC)C(=O)NC(=O)NC1=O (stereo not drawn) , please.
Resp: 1.63
